Each record here notes measured abundance fitness.
B1: Pre-mRNA-processing factor 40 homolog B, residues 274 to 332; numbered along this chain, Q6NWY9 (parent)
chain: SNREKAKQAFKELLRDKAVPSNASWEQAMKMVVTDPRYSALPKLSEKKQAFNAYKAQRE

variants of: B1; assay: abundance fitness (aPCA) (normalised: wild type 0, dead -1); higher = more abundant; growth selection in yeast, the domain comes from the species named; conditions: Homo sapiens
Respond numerically, and do not add a unit to the figure.

Below, each entry is followed by its recorded abundance fitness result.
>>> print(df.to_string())
   mutationcode  measvalue
0          W25G     -0.161
1          T34H      0.043
2          W25P     -0.237
3          M31D     -0.272
4          K11P     -0.322
5          A23Q     -0.528
6          N22K     -0.553
7          R15K     -0.129
8          F51G      -0.28
9          D16H      -1.03

Lab note: next variant to report on.
Exercise: Item L41E has what recorded abundance fitness?
Solution: -0.189
